Origin of measurements: ChEMBL document CHEMBL3779783

Property: MIC; scope: individual molecules
Test system: Enterococcus faecalis
ASSAY DETAILS: Antimicrobial activity against clinical isolates of high level vancomycin-resistant Enterococcus faecalis after 20 hrs by microdilution assay
Format: functional
Non-standard residues stand in square brackets, D forms with d. Residues, ends and D or L forms follow the SMILES beside them. Groups on a side chain read outwards from the residue. ξ: configuration not given here. ξGly(decyl) = CCCCCCCCCCC(N)C(=O)O
Field: numeric (µM). Do not append units.

Field: example entries. Status: answers known.
CCCCCCCCCCC(NC(=O)C(CCCCNC(=O)C(CCCCN)NC(C)=O)NC(=O)C(CCCCN)NC(C)=O)C(N)=O (stereo not given)    30
CCCCCCCCCCC(NC(=O)C(CCCCCCCCCC)NC(=O)C(CCCCNC(=O)C(CCCCN)NC(C)=O)NC(=O)C(CCCCN)NC(C)=O)C(N)=O (stereo not given) (Ac-KK([Lys-Ac])[ξGly(decyl)][ξGly(decyl)]-NH2; configuration not given here)    0.9
CCCCCCCCCCC(NC(=O)C(CCCCN)NC(C)=O)C(N)=O (stereo not given)    30

// next entry
Value of MIC reported for the molecule CCCCCCCCCCC(NC(=O)C(CCCCCCCCCC)NC(=O)C(CCCCNC(=O)C(N)CCCCN)NC(=O)C(N)CCCCN)C(N)=O (stereo not given) (H-KK(Lys)[ξGly(decyl)][ξGly(decyl)]-NH2; configuration not given here) is 0.2
